# target.under.test: LPAR1 (Homo sapiens, UniProt Q92633)
# Construct: host or cells: U2OS
# Sequence (Q92633 whole entry): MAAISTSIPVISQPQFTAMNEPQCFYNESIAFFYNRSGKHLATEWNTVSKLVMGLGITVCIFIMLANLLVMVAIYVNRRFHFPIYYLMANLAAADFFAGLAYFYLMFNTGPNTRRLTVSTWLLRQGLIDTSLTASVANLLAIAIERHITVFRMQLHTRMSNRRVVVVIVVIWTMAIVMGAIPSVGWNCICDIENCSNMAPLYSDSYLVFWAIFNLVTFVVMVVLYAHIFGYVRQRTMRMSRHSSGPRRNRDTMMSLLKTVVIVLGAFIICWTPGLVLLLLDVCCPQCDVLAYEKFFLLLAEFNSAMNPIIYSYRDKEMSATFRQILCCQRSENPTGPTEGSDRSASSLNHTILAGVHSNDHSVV
# measurement.protocol: LPAR1 FLIPR Assay
# Type: cell-based
# measurement.setup: U2OS cells stably expressing LPAR1; LPA (EC80); Calcium 6 FLIPR dye
Each entry below carries its recorded IC50.

Please review the following examples before continuing.
[[record]]
structure_smiles = "COc1cc(C(=O)N(CCCc2cc(Cl)cc(Cl)c2)CCOCC(=O)O)cc(OC)c1C"
target_under_test = "LPAR1 (Homo sapiens, UniProt Q92633)"
obs_value = "> 10 µM"

[[record]]
structure_smiles = "COc1ccc(C(=O)N(CCCCC(=O)O)CCCc2ccccc2)cc1"
target_under_test = "LPAR1 (Homo sapiens, UniProt Q92633)"
obs_value = "> 30 µM"

[[record]]
structure_smiles = "COc1cc(C(=O)N(CCCc2ccccc2)CCC(=O)O)cc(OC)c1C"
target_under_test = "LPAR1 (Homo sapiens, UniProt Q92633)"
obs_value = "> 30 µM"

[[record]]
structure_smiles = "COc1cc(OC)cc(C(=O)N(CCCCC(=O)O)CCCc2cc(F)cc(F)c2)c1"
target_under_test = "LPAR1 (Homo sapiens, UniProt Q92633)"
obs_value = "> 10 µM"


Now for the compound whose IC50 we want.
### Prompt Please report IC50 for the following compound: COc1cc(C(=O)N(CCCCC(=O)O)CCCc2ccccc2)ccc1F
### Response > 30 µM

====

# System: LPA-induced MCP-1 in NRK-49F cells
# measurement.protocol: LPA-induced MCP-1 AlphaLISA assay
# Type: cell-based
# measurement.setup: Rattus norvegicus, final LPA 10 μM, 7 hours, read-out: Maximum Inhibition
# Description: Two days prior to the experiment, NRK-49F cells were plated at 8,000 cells/well in 100 μL of growth medium [DMEM (Life Technologies #11995) with 5% dFBS (Life Technologies #30067-334), 100 units/mL penicillin/streptomycin (Life Technologies #15140122)] in 96-well clear flat bottom polystyrene TC-treated microplate (Corning® #3599) and incubated in humidified 10% CO2 at 37° C. […] The plate was read using the default Envision™ Alpha protocol (PerkinElmer). […]
parameter.measured: Emax (%)
Kindly provide the numeric value in % only, without the unit symbol.

### Prompt For the molecule COc1cc(OC)cc(C(=O)N(CCCCC(=O)O)CCCc2ccccc2)c1 , give its reported Emax.
### Response 71

### Prompt Report measured Emax; entry is COc1ccc(C2(C(=O)N(CCCCC(=O)O)CCCc3ccccc3)CC2)cc1Cl
### Response 71

### Prompt In one line, give reported Emax of the entry COc1cc(C(=O)N(CCCc2ccccc2)CCCC(O)C(=O)O)cc(OC)c1C1CC1 (stereo not drawn) .
### Response 70

====

# target.under.test: LPAR1 (Homo sapiens, UniProt Q92633)
# Construct: host or cells: U2OS
# measurement.protocol: LPAR1 FLIPR Assay
# Format: cell-based
# measurement.setup: U2OS cells stably expressing LPAR1; LPA (EC80); Calcium 6 FLIPR dye
Measured pIC50 of individual entries
Conceptually, pIC50 converts a concentration in mol/L into minus its log10.

Recorded pIC50, per entry:
[[record]]
structure_smiles = "COc1ccc(C2(C(=O)N(CCCc3ccccc3)CCOCC(=O)O)CC2)cc1"
target_under_test = "LPAR1 (Homo sapiens, UniProt Q92633)"
parameter_measured = "pIC50"
obs_value = 7.09

[[record]]
structure_smiles = "COc1cc(C(=O)N(CCCc2ccccc2)CC(=O)NC2(C(=O)O)CC2)cc(OC)c1C"
target_under_test = "LPAR1 (Homo sapiens, UniProt Q92633)"
parameter_measured = "pIC50"
obs_value = 7.15

[[record]]
structure_smiles = "COc1cc(C(=O)N(CCCCC(=O)O)CCCc2ccc(C)o2)cc(OC)c1C"
target_under_test = "LPAR1 (Homo sapiens, UniProt Q92633)"
parameter_measured = "pIC50"
obs_value = 7.89


### Prompt Find the measured pIC50 of O=C(O)CCCCN(CCCc1ccccc1)C(=O)C1(c2ccc(OC(F)(F)F)cc2)CC1 and report it.
### Response 4.53

### Prompt Identify measured pIC50 associated with COc1cc(C(=O)N(CCCc2ccc(F)cc2F)CCOCC(=O)O)cc(OC)c1C
### Response 7.39

### Prompt Give pIC50 for the following compound: COc1cc(C(=O)N(CCCCC(=O)O)CCCc2ccc(Cl)o2)cc(OC)c1C
### Response 7.89

### Prompt Return the recorded pIC50 value; entry: COc1cc(C(=O)N(CCCc2ccc(C)o2)CCCC(C)(C)C(=O)O)cc(OC)c1C
### Response 7.32
